- System: CIB1 and αIIb interaction (CIB1-GST : F-αIIb peptide) (Homo sapiens)
- Construct: made in house; host or cells: BL-21 plus RIL cells (E. coli)
- Assay Procedure: FP assay, 1536-well qHTS format (primary and confirmatory screen)
- Type: binding
- Condition Label: confirmatory screen; negative = inhibition
Could you please report measured CONFIRMATORY SCREEN Efficacy (%) for the items listed next?
Answer in %, number only, no unit symbol.

For the compound shown here, Cl.NC(CO)(CO)CCc1ccc(Sc2cccc(OCc3ccccc3)c2)cc1Cl [NCGC00250388-02] , give the reported CONFIRMATORY SCREEN Efficacy (%). -80

Param item: O=[N+]([O-])c1cnc(Sc2nnc(O)n2-c2ccc3c(c2)OCCO3)s1 [NCGC00263145-01] -64

Param item: CN(C)C(=S)SSC(=S)N(C)C [NCGC00091563-12] -67

Param item: CN1CCCN=C1/C=C/c1cccs1.O=C(O)c1cc2ccccc2c(Cc2c(O)c(C(=O)O)cc3ccccc23)c1O [NCGC00094552-04] -39

----------
- System: GST-CIB1 : F-scrambled peptide (Homo sapiens, UniProt Q99828)
- Construct: made in house; host or cells: BL-21 plus RIL cells (E. coli)
- Assay Procedure: FP scrambled-peptide counter screen, 1536-well format
- Format: binding
- Condition Label: scrambled-peptide counterscreen; read-out: COUNTERSCREEN IC50
Endpoint Label: pIC50
pIC50 is a log-scale quantity: -log10 of the concentration expressed in molar.

For the compound shown here, O=C(Nc1nc(-c2ccccc2)cs1)c1ccncc1NS(=O)(=O)c1cccc2cccnc12.O=C(O)C(F)(F)F , give the reported pIC50. 4.15

Param item: Cc1cc(=O)oc2cc(SC3=NS(=O)(=O)c4ccccc43)ccc12 4.40

Param item: Oc1c(Cl)cc(Cl)c(Cl)c1Cc1c(O)c(Cl)cc(Cl)c1Cl 4.05

----------
Could you please report measured CONFIRMATORY SCREEN Efficacy (%) for the items listed next?
- System: CIB1 and αIIb interaction (CIB1-GST : F-αIIb peptide) (Homo sapiens, UniProt Q99828)
- Construct: made in house; host or cells: BL-21 plus RIL cells (E. coli)
- Sequence (Q99828 1-191): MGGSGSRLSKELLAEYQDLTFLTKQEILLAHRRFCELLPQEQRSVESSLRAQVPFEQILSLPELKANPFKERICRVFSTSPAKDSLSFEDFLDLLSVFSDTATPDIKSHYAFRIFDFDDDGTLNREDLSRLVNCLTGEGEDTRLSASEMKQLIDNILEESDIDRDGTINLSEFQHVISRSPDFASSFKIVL
- Assay Procedure: FP assay, 1536-well qHTS format (primary and confirmatory screen)
- Assay type: binding
- Condition Label: confirmatory screen; negative = inhibition
Answer in %, number only, no unit symbol.

Query CONFIRMATORY SCREEN Efficacy (%) on CIB1 and αIIb interaction (CIB1-GST : F-αIIb peptide) (Homo sapiens, UniProt Q99828) for O=C(Nc1nc(-c2ccccc2)cs1)c1ccncc1NS(=O)(=O)c1cccc2cccnc12.O=C(O)C(F)(F)F [NCGC00344938-01] -93

Param item: Cc1ccc(S(=O)(=O)Nc2cnccc2C(=O)Nc2nc(-c3nc4ccccc4s3)cs2)cc1.O=C(O)C(F)(F)F [NCGC00343736-01] -89

Param item: Cc1cc(SCc2sc(-c3ccc(Cl)c(Cl)c3)nc2C)ccc1OCc1nnn[nH]1.O=C(O)C(F)(F)F [NCGC00344871-01] -63

Param item: CCCCCc1c2c(cc(O)c1C(=O)O)OC(=O)c1c(cc(OC)cc1C(=O)CCCC)O2.O=C(O)C(F)(F)F [NCGC00095570-05] -60

Param item: N#Cc1ccc(N2N=C3c4ccc(C(=O)O)cc4CC[C@@H]3[C@@H]2C2CCCC2)cc1Cl [NCGC00485023-01] -30

Param item: O=C(Nc1nc(-c2ccccc2)cs1)c1ccncc1NS(=O)(=O)c1ccccc1Cl.O=C(O)C(F)(F)F [NCGC00344943-01] -98

Param item: COc1cccc(-c2csc(NC(=O)c3ccncc3NS(=O)(=O)c3ccc(C)cc3)n2)c1 [NCGC00319006-02] -89

Param item: Cc1cc(NS(=O)(=O)c2ccc(NCCc3ccc(Cl)c(Cl)c3)cc2)no1.O=C(O)C(F)(F)F [NCGC00244100-02] -36

Param item: Cc1ccc(S(=O)(=O)Nc2cc([N+](=O)[O-])ccc2C(=O)Nc2nc(-c3ccccc3)cs2)cc1.O=C(O)C(F)(F)F [NCGC00262992-01] -97

Where do the numbers come from? From paper PMC11249646.
